- Test system: Plasmodium berghei
- assay-method-text: Screen against P. berghei liver stage (PbLuc), transformed with Luciferase, at 10uM
- Format: functional, HepG2
- study-conditions: tested at 10 uM
The campaign covered roughly 69,000 compounds. About 8,600 (12%) showed an effect of 50% or more. Many of the other results were omitted from the sample, so strong results are more common in it than they were.
INHIBITION strictly under 20% means y; at 20% or over means n.

For orientation, consider the following solved cases.
Prompt line: Answer whether the molecule `c1cc(-c2nc3c(c(NCCn4ccnn4)n2)CCNCC3)ccn1` has INHIBITION strictly less than 20%
Response line: n

Prompt line: Answer whether the molecule Cc1nc(C2CCCCN2S(C)(=O)=O)no1 (centres undefined) has INHIBITION strictly less than 20%
Response line: y

Next:
Prompt line: Answer whether the molecule `Cn1ccnc1CN1CCC2(CC1)Cc1ccccc1CNC2=O` has INHIBITION strictly less than 20%
Response line: n

Prompt line: Answer whether the molecule COCCNc1nc2c(c(NCC3CCOC3)n1)CCNCC2 (centres undefined) has INHIBITION strictly less than 20%
Response line: n

Prompt line: Answer whether the molecule `COc1cc(C(C)=O)ccc1OCC(=O)N(C)Cc1cnn(C)c1` has INHIBITION strictly less than 20%
Response line: n

Prompt line: Answer whether the molecule `CC(=O)c1cccc(OCCCC(=O)N(C)Cc2cscn2)c1` has INHIBITION strictly less than 20%
Response line: y

Prompt line: Answer whether the molecule Cc1nc(CNC(=O)N(CCCO)C2CCc3ccccc32)oc1C (centres undefined) has INHIBITION strictly less than 20%
Response line: n

Prompt line: Answer whether the molecule `c1cc(-c2nc3c(c(NCCc4c[nH]cn4)n2)CCNCC3)ccn1` has INHIBITION strictly less than 20%
Response line: y

Prompt line: Answer whether the molecule `COCCNc1nc2c(c(NCc3ccncc3)n1)CCNCC2` has INHIBITION strictly less than 20%
Response line: y

Prompt line: Answer whether the molecule `CC(=O)c1cccc(OCCCC(=O)N(C)Cc2cnn(C)c2)c1` has INHIBITION strictly less than 20%
Response line: n

Prompt line: Answer whether the molecule `CN(C)C(=O)Cc1nc(CN2CCn3c(nnc3C3CC3)C2)cs1` has INHIBITION strictly less than 20%
Response line: y

Prompt line: Answer whether the molecule `Cc1ccccc1OCCn1cnc2oc(C)c(C(=O)O)c2c1=O` has INHIBITION strictly less than 20%
Response line: y

Prompt line: Answer whether the molecule `CCCN(CCC)C(=O)CN(C)Cc1cnc(C)s1` has INHIBITION strictly less than 20%
Response line: n

Prompt line: Answer whether the molecule `Cc1noc(C)c1CN1CCc2ncc(CN(C)C)n2CC1` has INHIBITION strictly less than 20%
Response line: n
